Assay text: collision cross section (TWIMS, N2) of ion [M+H]+; higher = larger gas-phase ion cross section
Experimental context: ionization: ESI positive; LC: HILIC, pH 3.0 ammonium formate
Listed here: items and their measured collision cross section.
Result type: collision cross section (Å²)

1. CC(C)(COP(=O)(O)OP(=O)(O)OC[C@H]1O[C@@H](n2cnc3c(N)ncnc32)[C@H](O)[C@@H]1OP(=O)(O)O)[C@@H](O)C(=O)NCCC(=O)NCCSC(=O)CCC(=O)O; 260.23
2. O=C(O)Cc1c[nH]c2ccccc12; 137.05
3. Cc1c(C)c2c(c(C)c1O)CC[C@@](C)(CCC[C@H](C)CCC[C@H](C)CCCC(C)C)O2; 216.53
4. C=C1CC[C@H](O)C/C1=C/C=C1\CCC[C@]2(C)[C@@H]([C@H](C)CCCC(C)C)CC[C@@H]12; 206.18

---

Assay text: retention time on BEH HILIC column (20 min gradient, 0.4 mL/min); higher = later elution
Experimental context: ionization: ESI negative; LC: HILIC, pH 9.0 ammonium acetate
Result type: retention time on BEH HILIC column

1. N[C@@H](Cc1c[nH]c2ccccc12)C(=O)O [L-tryptophan]; 5.86 min
2. N[C@@H](CCC(=O)O)C(=O)O [L-glutamic acid]; 8.21 min
3. N[C@@H](CO)C(=O)O [L-serine]; 7.75 min
4. CC(C)(CO)[C@@H](O)C(=O)NCCC(=O)O [Pantothenic acid]; 2.08 min
5. NCCc1c[nH]c2ccc(O)cc12 [Serotonin]; 3.73 min
6. O=C(O)CCC(=O)C(=O)O [a-ketoglutaric acid]; 5.51 min
7. CC/C=C\C/C=C\C/C=C\C/C=C\C/C=C\CCCC(=O)O [Eicosapentaenoic acid]; 0.72 min
8. O=C(CO)[C@@H](O)[C@H](O)[C@H](O)COP(=O)(O)O [Fructose 6-phospahte]; 11.9 min
9. OC[C@H]1O[C@H](O[C@H]2[C@H](O)[C@H](O)[C@@H](O)O[C@@H]2CO)[C@H](O)[C@@H](O)[C@@H]1O [D-maltose]; 7.95 min
10. O=C[C@H](O)COP(=O)(O)O [D-glyceraldehyde 3-phosphate]; 12.1 min

---

Assay text: collision cross section (TWIMS, N2) of ion [M-H]-; higher = larger gas-phase ion cross section
Experimental context: ionization: ESI negative; LC: HILIC, pH 9.0 ammonium acetate
Listed here: items and their measured collision cross section.
Result type: collision cross section (Å²)

1) O=C1CC[C@@H](C(=O)O)N1; 123.74
2) O=c1[nH]c(=O)c2[nH]c(=O)[nH]c2[nH]1; 125.59
3) CNC[C@H](O)c1ccc(O)c(O)c1 [Epinephrine]; 140.21
4) CC(=O)SCCNC(=O)CCNC(=O)[C@H](O)C(C)(C)COP(=O)(O)OP(=O)(O)OC[C@H]1O[C@@H](n2cnc3c(N)ncnc32)[C@H](O)[C@@H]1OP(=O)(O)O; 256.25
5) CC(C)(COP(=O)(O)OP(=O)(O)OC[C@H]1O[C@@H](n2cnc3c(N)ncnc32)[C@H](O)[C@@H]1OP(=O)(O)O)[C@@H](O)C(=O)NCCC(=O)NCCSC(=O)CCC(=O)O; 262.11
6) Nc1ncnc2c1ncn2[C@@H]1O[C@H](COP(=O)(O)OP(=O)(O)O)[C@@H](O)[C@H]1O; 183.67
7) CCC(CO)C(=O)O (stereo not given) [2-ethylhydracrylic acid]; 123.21
8) O=C(O)c1ccc(O)cc1 [4-hydroxybenzoic acid]; 123.01
9) O=C(O)Cc1c[nH]c2ccccc12; 141.98
10) OC[C@H]1OC(O)[C@H](O)[C@@H]1O (stereo not given in full); 121.34
11) Nc1ncnc2nc[nH]c12; 126.29
12) O=C(O)c1cc(O)c2cccc(O)c2n1; 136.52
13) O=C(O)CNC(=O)c1ccccc1; 139.07
14) Nc1ncnc2c1ncn2[C@@H]1O[C@H](CO)[C@@H](O)[C@H]1O; 155.95
15) CCCCC(C)C(=O)O (stereo not given); 134.11
16) CC(C)[C@H](N)C(=O)O; 126.43
17) COc1cc([C@H](O)C(=O)O)ccc1O; 144.75
18) CCCCC/C=C\C/C=C\CCCCCCCC(=O)O; 179.98
19) C[C@H](N)C(=O)O; 117.06
20) C[C@@H](CCC(=O)O)CC(=O)O; 131.84
21) O=P(O)(O)OC[C@H]1O[C@@](O)(CO)[C@@H](O)[C@H](O)[C@@H]1O [D-sedoheptulose 7-phosphate]; 150.55
22) C=C1CC[C@H](O)C/C1=C/C=C1\CCC[C@]2(C)[C@@H]([C@H](C)CCCC(C)C)CC[C@@H]12; 201.16
23) OC[C@H]1O[C@@H](O[C@H]2[C@H](O)[C@@H](O)[C@@H](O)O[C@@H]2CO)[C@H](O)[C@@H](O)[C@H]1O; 172.39
24) Nc1nc2c(ncn2[C@@H]2O[C@@H]3COP(=O)(O)O[C@H]3[C@H]2O)c(=O)[nH]1; 172.34
25) Cc1cccc(O)c1; 122.73
26) CCCC(=O)O; 122.31
27) O=C1O[C@H]([C@@H](O)CO)C(O)=C1O; 122.95
28) OC[C@@H](O)[C@@H](O)[C@@H](O)CO; 126.54
29) N[C@@H](Cc1ccc(O)cc1)C(=O)O; 141.65
30) O=C(O)CCCC(=O)C(=O)O; 128.96
31) OC[C@H]1O[C@H](O)[C@@H](O)[C@@H](O)[C@@H]1O; 132.14
32) Nc1ccccc1C(=O)O; 126.13
33) OC[C@@H](O)[C@H](O)[C@@H](O)CO; 128.01
34) O=C(O)c1cc(=O)c2ccccc2[nH]1; 134.49
35) CN1CC(=O)NC1=N; 120.56
36) C/C(=C/C(=O)O)C(=O)O; 120.54
37) Nc1ncnc2c1ncn2[C@@H]1O[C@H](COP(=O)(O)O)[C@@H](O)[C@H]1O; 175.53
38) O=C(O)CCCCCCCC(=O)O; 139.96
39) OC[C@H]1O[C@@H](n2cnc3c(O)ncnc32)[C@H](O)[C@@H]1O; 159.47
40) N[C@@H](Cc1ccccc1)C(=O)O; 138.51

---

Assay text: collision cross section (TWIMS, N2) of ion [M+Na]+; higher = larger gas-phase ion cross section
Experimental context: ionization: ESI positive; LC: HILIC, pH 3.0 ammonium formate
Result type: collision cross section

1) OC[C@@H](O)[C@@H](O)[C@@H](O)CO; 133.34 Å²
2) O=C(O)CC(O)c1cccc(O)c1 (stereo not given) [3-(3-hydroxyphenyl)-3-hydroxypropanoic acid]; 146.99 Å²
3) CCCCCCCCCC(=O)O; 143.53 Å²
4) O=C(O)Cc1cccc(O)c1 [3-hydroxyphenylacetic acid]; 139.98 Å²
5) CCCCCCCC/C=C\CCCCCCCC(=O)O; 181.57 Å²
6) OC[C@@H](O)C(O)[C@H](O)CO; 133.34 Å²
7) CN1CC(=O)NC1=N; 129.07 Å²
8) OC[C@H]1O[C@@H](O[C@H]2[C@H](O)[C@@H](O)[C@@H](O)O[C@@H]2CO)[C@H](O)[C@@H](O)[C@H]1O; 171.29 Å²
9) OC[C@@H](O)[C@@H](O)CO; 128.38 Å²
10) OC[C@H]1O[C@](O)(CO)[C@@H](O)[C@@H]1O; 140.11 Å²

---

Assay text: collision cross section (TWIMS, N2) of ion [M+Na]+; higher = larger gas-phase ion cross section
Experimental context: ionization: ESI positive; LC: HILIC, pH 3.0 ammonium formate
Listed here: items and their measured collision cross section.
Result type: collision cross section (Å²)

1) OC[C@@H](O)[C@@H](O)[C@H](O)[C@@H](O)CO; 140.03
2) O=C(CO)[C@@H](O)[C@H](O)[C@H](O)COP(=O)(O)O; 151.18
3) O=C(O)c1ccc(CO)o1; 129.97
4) OC[C@H]1O[C@@H](O)[C@H](O)[C@@H](O)[C@@H]1O; 143.24
5) O=P(O)(O)OC[C@H]1OC(O)[C@H](O)[C@@H](O)[C@@H]1O (stereo not given in full) [Glucose 6-phosphate]; 154.07
6) Nc1ncnc2nc[nH]c12; 134.02
7) O=C(O)/C=C(/CC(=O)O)C(=O)O [cis-aconitic]; 139.19
8) CCCCCC(=O)O; 130.13
9) CCCCCCCCCCCCCCCCCCCC(=O)O; 198.31
10) OC[C@H]1O[C@H](O)[C@H](O)[C@@H](O)[C@H]1O; 138.53
